Each recorded value in this set is attributed to paper PMC7610864.

Assay Endpoint: pIC50
// field semantics: pIC50 = negative decimal log of concentration (mol/L)

*Q* Write down measured pIC50 (PGD2 receptor 2 (DP2) (Homo sapiens)) for this molecule. Cc1c(CC(=O)O)c2cccnc2n1Cc1ccc(S(C)(=O)=O)cc1C(F)(F)F [fevipiprant]
*A* 8.46
